pKi values recorded for Somatostatin receptor type 3 (Homo sapiens, UniProt P32745)
Positions of bridges follow the written chain, without caps; N, C: chain ends. Non-standard residues stand in square brackets, D forms with d. Residues, ends and D or L forms follow the SMILES beside them. *: point of attachment. d1Nal = N[C@H](Cc1cccc2ccccc12)C(=O)O; Asu = N[C@@H](CCCCCC(=O)O)C(=O)O; Nphe = O=C(O)CNCc1ccccc1; Ahp = NCCCCCCC(=O)O; Bn = c1ccc(C*)cc1
# pKi: negative log10 of molar concentration; output just the value

compound=CC(C)[C@@H]1NC(=O)[C@H](CCCCN)NC(=O)[C@@H](Cc2c[nH]c3ccccc23)NC(=O)[C@H](Cc2ccc(O)cc2)NC(=O)[C@@H](NC(=O)[C@H](N)Cc2ccc3ccccc3c2)CSSC[C@@H](C(=O)N[C@H](C(N)=O)[C@@H](C)O)NC1=O result=7.20
compound="C[C@@H](O)[C@@H]1NC(=O)[C@H](Cc2ccc(O)cc2)NC(=O)[C@H]([C@@H](C)O)NC(=O)[C@H](CCCCN)NC(=O)[C@H](Cc2c[nH]c3ccccc23)NC(=O)[C@H](Cc2ccccc2)NC(=O)[C@H](Cc2ccccc2)NC(=O)[C@H](CC(N)=O)NC(=O)[C@H](CCCCN)NC(=O)CCCCC[C@@H](C(=O)O)NC(=O)[C@H](CO)NC1=O [CGP-23996] (KNFFWKTYTS[Asu]-OH; lactam N-11)" result=9.41
compound="C[C@@H](O)[C@H](NC(=O)[C@H](Cc1ccccc1)NC(=O)[C@@H](NC(=O)[C@H](CCCCN)NC(=O)[C@@H](Cc1c[nH]c2ccccc12)NC(=O)[C@H](Cc1ccccc1)NC(=O)[C@H](Cc1ccccc1)NC(=O)[C@H](N)Cc1ccccc1)[C@@H](C)O)C(N)=O [CAS_133073-82-2] (H-[dF]FF[dW]KTFT-NH2)" result=8.70

What is its pKi for Somatostatin receptor type 3 (Homo sapiens, UniProt P32745)? Entry: C[C@@H](OCc1ccccc1)[C@@H]1NC(=O)[C@H](CCCCN)NC(=O)[C@@H](Cc2c[nH]c3ccccc23)NC(=O)[C@H](Cc2ccccc2)NC(=O)CCCCCCNC1=O [c[Aha-Phe-D-Trp-Lys-Thr(Bzl)]] (cyclo([Ahp]F[dW]KT(Bn))) 6.40

API: value(readout= pKi, system= Somatostatin receptor type 3 (Homo sapiens, UniProt P32745), query= C[C@@H](O)[C@@H]1NC(=O)[C@H](CCCCN)NC(=O)[C@@H](Cc2c[nH]c3ccccc23)NC(=O)[C@H](Cc2c[nH]c3ccccc23)NC(=O)[C@H](Cc2ccccc2)NC(=O)CCCCCCNC(=O)[C@H](Cc2ccccc2)NC1=O [L-362855] (cyclo([Ahp]FW[dW]KTF)) ) 8.20

Form field - read-out: pKi; system: Somatostatin receptor type 3 (Homo sapiens, UniProt P32745); submitted item: C[C@@H](O)[C@@H]1NC(=O)[C@H](CCCCN)NC(=O)[C@@H](Cc2c[nH]c3ccccc23)NC(=O)[C@H](Cc2ccccc2)NC(=O)[C@@H]2CCCN2C(=O)[C@H](Cc2ccccc2)NC1=O (cyclo(PF[dW]KTF)) 6.90

Form: Entry = CC(C)[C@H](NC(=O)[C@H](CCCCN)NC(=O)[C@@H](Cc1c[nH]c2ccccc12)NC(=O)[C@H](Cc1ccc(O)cc1)NC(=O)[C@H](Cc1ccccc1)NC(=O)[C@H](N)Cc1ccccc1)C(=O)N[C@@H](Cc1ccccc1)C(=O)N[C@H](Cc1cccc2ccccc12)C(N)=O [BIM 23056] (H-[dF]FY[dW]KVF[d1Nal]-NH2) | System = Somatostatin receptor type 3 (Homo sapiens, UniProt P32745) | pKi = ____ 7.00

Recall the recorded pKi for CC(=O)N(CC(=O)NC1CSSCC(C(=O)NC(Cc2c[nH]c3ccccc23)C(N)=O)NC(=O)C(C(C)C)NC(=O)C(CCCCN)NC(=O)C(Cc2c[nH]c3ccccc23)NC(=O)C(Cc2ccc(O)cc2)NC1=O)Cc1ccccc1 (stereo not drawn) [RC 160II] (Ac-[Nphe]CYWKVCW-NH2; disulfide 2-7; configuration not given here) with Somatostatin receptor type 3 (Homo sapiens, UniProt P32745) and state it. 7.00
